Each recorded value in this set is attributed to patent US8481555B2.

METHOD SUMMARY: Conversion of Compound B to Compound A in the dog (IV infusion and oral gavage, crossover)
Assay type: in vivo, male beagle dogs
SETUP CONDITIONS: male, beagle, fed, IV infusion of Compound B 1 mg/kg, plasma, read-out: Vss
METRIC NAME: Vd (L/kg)
Answers are plain numbers, in L/kg.

In: // lookup Vd for [O-][N+]12CCC(CC1)[C@]1(CN=C(Nc3cc4ccccc4cn3)O1)C2 [Compound B]
Out: 2

----------
METHOD SUMMARY: Conversion of Compound B to Compound A in the dog (IV infusion and oral gavage, crossover)
Format: in vivo, male beagle dogs
SETUP CONDITIONS: plasma, PO administration of Compound A alone, read-out: oral AUC of Compound A following PO administration of Compound A alone
METRIC NAME: AUC (µM·h)
Give bare numbers, in µM·h.

In: What value of AUC has been recorded for this entry: c1ccc2cc(NC3=NC[C@@]4(CN5CCC4CC5)O3)ncc2c1 [Compound A]
Out: 1.74

----------
METHOD SUMMARY: Conversion of Compound B to Compound A in the rat (intra-duodenal infusion, portal vein sampling)
Format: in vivo, male Sprague-Dawley rats
SETUP CONDITIONS: male, Sprague-Dawley, in vivo, fasted, intra-duodenal infusion of Compound B 10 mg/kg, PVC collection, plasma, analyte as labelled
METRIC NAME: Cmax (µM)
Numbers only, in µM.

c1ccc2cc(NC3=NC[C@@]4(CN5CCC4CC5)O3)ncc2c1 [Compound A] | 0.86

Kindly consider the entry below.
In: Quick one: Cmax for [O-][N+]12CCC(CC1)[C@]1(CN=C(Nc3cc4ccccc4cn3)O1)C2 [Compound B] ?
Out: 0.76

----------
METHOD SUMMARY: Conversion of Compound B to Compound A in the rat (intra-duodenal infusion, portal vein sampling)
Type: in vivo, male Sprague-Dawley rats
SETUP CONDITIONS: male, Sprague-Dawley, in vivo, intra-duodenal infusion of Compound B 10 mg/kg, analyte as labelled, 6 hours, read-out: Plasma concentration in the portal vein
METRIC NAME: concentration at 6 h (nM)
Answers are plain numbers, in nM.

In: # input molecule: `c1ccc2cc(NC3=NC[C@@]4(CN5CCC4CC5)O3)ncc2c1` ; wanted: its concentration at 6 h
Out: 434

----------
METHOD SUMMARY: Conversion of Compound B to Compound A in the dog (IV infusion and oral gavage, crossover)
Assay type: in vivo, male beagle dogs
SETUP CONDITIONS: male, beagle, fasted, oral gavage of Compound B 5 mg/kg, plasma
METRIC NAME: AUC(0-inf) (µM·h)
One number for each entry, in µM·h.

In: What does the data say about its AUC(0-inf)? Entry: [O-][N+]12CCC(CC1)[C@]1(CN=C(Nc3cc4ccccc4cn3)O1)C2 [Compound B]
Out: 5.69

----------
METHOD SUMMARY: Conversion of Compound B to Compound A in the dog (IV infusion and oral gavage, crossover)
Type: in vivo, male beagle dogs
SETUP CONDITIONS: male, beagle, plasma, PO dosing of Compound B (10 mg/kg as printed in text), read-out: plasma AUC of Compound A after PO dosing of Compound B
METRIC NAME: AUC

In: Could you tell me which AUC is on file for `c1ccc2cc(NC3=NC[C@@]4(CN5CCC4CC5)O3)ncc2c1` ?
Out: 0.7 µM·h

----------
METHOD SUMMARY: Conversion of Compound B to Compound A in the rat (intra-duodenal infusion, portal vein sampling)
Format: in vivo, male Sprague-Dawley rats
SETUP CONDITIONS: male, Sprague-Dawley, in vivo, 10 mg/kg, fasted, intra-duodenal infusion of Compound B 10 mg/kg, PVC collection, plasma, analyte as labelled, read-out: AUC(0-4)
Protocol: The following section details the liquid chromatography with tandem mass spectrometry (LC/MS/MS)-based bioanalytical methods developed to support the analysis of the in vivo biological samples (brain, plasma, urine) from studies conducted in the dog and rat. Sample Preparation: Blood, Plasma, Serum, Urine. Plasma and blood samples were prepared as described below. […] Standard Curve Ranges. […] Standards were analyzed in duplicate. […]
For each of the molecules below, state its AUC(0-t).

c1ccc2cc(NC3=NC[C@@]4(CN5CCC4CC5)O3)ncc2c1 | 1.22 µM·h

Now examine the next entry.
In: Can you share its AUC(0-t)? I mean this molecule: `[O-][N+]12CCC(CC1)[C@]1(CN=C(Nc3cc4ccccc4cn3)O1)C2`
Out: 0.34 µM·h

----------
Give concentration at 4 h for every item shown.
METHOD SUMMARY: Conversion of Compound B to Compound A in the rat (intra-duodenal infusion, portal vein sampling)
Type: in vivo, male Sprague-Dawley rats
SETUP CONDITIONS: male, Sprague-Dawley, in vivo, intra-duodenal infusion of Compound B 10 mg/kg, analyte as labelled, 4 hours, read-out: Plasma concentration in the portal vein

c1ccc2cc(NC3=NC[C@@]4(CN5CCC4CC5)O3)ncc2c1 [Compound A] | 455 nM

In: Consider the compound shown here: [O-][N+]12CCC(CC1)[C@]1(CN=C(Nc3cc4ccccc4cn3)O1)C2 [Compound B] What is its recorded concentration at 4 h?
Out: 18 nM

----------
METHOD SUMMARY: Conversion of Compound B to Compound A in the dog (IV infusion and oral gavage, crossover)
Format: in vivo, male beagle dogs
SETUP CONDITIONS: male, beagle, fed, IV infusion of Compound B 1 mg/kg, plasma, analyte as labelled, read-out: AUC(0-24 h)
I'd appreciate it if you could supply AUC(0-t) values for the items below.
Answers are plain numbers, in µM·h.

Please supply AUC(0-t) for each of the following items, keeping them in order.
1. [O-][N+]12CCC(CC1)[C@]1(CN=C(Nc3cc4ccccc4cn3)O1)C2
2. c1ccc2cc(NC3=NC[C@@]4(CN5CCC4CC5)O3)ncc2c1

Out:
1: 3.84; 2: 0.03

----------
METHOD SUMMARY: Conversion of Compound B to Compound A in the rat (intra-duodenal infusion, portal vein sampling)
Assay type: in vivo, male Sprague-Dawley rats
SETUP CONDITIONS: male, Sprague-Dawley, in vivo, intra-duodenal infusion of Compound B 10 mg/kg, analyte as labelled, 1 hour, read-out: Plasma concentration in the portal vein
Can you tell me concentration at 1 h for the items I'm about to list?
Form field: result (number plus unit)

Batch of 2 compounds: report concentration at 1 h for each.
1. c1ccc2cc(NC3=NC[C@@]4(CN5CCC4CC5)O3)ncc2c1
2. [O-][N+]12CCC(CC1)[C@]1(CN=C(Nc3cc4ccccc4cn3)O1)C2

Out:
1: 448 nM; 2: 69 nM

----------
METHOD SUMMARY: Conversion of Compound B to Compound A in the rat (intra-duodenal infusion, portal vein sampling)
Assay type: in vivo, male Sprague-Dawley rats
SETUP CONDITIONS: male, Sprague-Dawley, in vivo, intra-duodenal infusion of Compound B 10 mg/kg, analyte as labelled, 2 hours, read-out: Plasma concentration in the portal vein
METRIC NAME: concentration at 2 h (nM)
Give bare numbers, in nM.

c1ccc2cc(NC3=NC[C@@]4(CN5CCC4CC5)O3)ncc2c1 [Compound A] | 750

Turning to the following compound.
In: Name the reported concentration at 2 h value associated with the compound [O-][N+]12CCC(CC1)[C@]1(CN=C(Nc3cc4ccccc4cn3)O1)C2 [Compound B]
Out: 52

----------
METHOD SUMMARY: Conversion of Compound B to Compound A in the rat (intra-duodenal infusion, portal vein sampling)
Format: in vivo, male Sprague-Dawley rats
SETUP CONDITIONS: male, Sprague-Dawley, in vivo, intra-duodenal infusion of Compound B 10 mg/kg, analyte as labelled, 0.167 hours, read-out: Plasma concentration in the portal vein
METRIC NAME: concentration at 0.167 h (nM)
One number for each entry, in nM.

c1ccc2cc(NC3=NC[C@@]4(CN5CCC4CC5)O3)ncc2c1 | 3

Alright, here's another compound for you.
In: Need concentration at 0.167 h, item `[O-][N+]12CCC(CC1)[C@]1(CN=C(Nc3cc4ccccc4cn3)O1)C2`
Out: 601
